Molecular target: GST-TMEM106B (truncated, comprising amino acids 122-210 of SEQ ID NO:1) (Homo sapiens, UniProt Q9NUM4)
Sequence (Q9NUM4 122-210): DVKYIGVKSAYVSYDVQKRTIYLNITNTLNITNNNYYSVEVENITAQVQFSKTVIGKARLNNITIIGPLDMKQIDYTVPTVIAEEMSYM
Assay: Pre-mix epitope binning of anti-TMEM106B antibodies (Carterra / Lake Pharma)
Format: binding
Details: epitope bin number; pre-mix binning on truncated GST-TMEM106B
Endpoint: Binding Community/Bin
Numbers only.

TM-5: anti-TMEM106B monoclonal antibody; CDR-H1-3 SEQ ID NO: 6, 39, 82; CDR-L1-3 SEQ ID NO: 124, 164, 188 (antibody, V domains shown) VH: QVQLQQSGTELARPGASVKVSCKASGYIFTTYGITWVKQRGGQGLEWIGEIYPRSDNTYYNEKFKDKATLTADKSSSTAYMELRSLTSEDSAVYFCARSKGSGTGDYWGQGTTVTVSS VL: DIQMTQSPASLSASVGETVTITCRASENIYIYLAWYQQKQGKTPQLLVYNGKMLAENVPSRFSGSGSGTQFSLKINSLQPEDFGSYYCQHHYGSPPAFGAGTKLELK
4

Provide the reported Binding Community/Bin of each entry below, same order.
1. TM-10: anti-TMEM106B monoclonal antibody; CDR-H1-3 SEQ ID NO: 11, 44, 87; CDR-L1-3 SEQ ID NO: 128, 169, 192 (antibody, V domains shown) VH: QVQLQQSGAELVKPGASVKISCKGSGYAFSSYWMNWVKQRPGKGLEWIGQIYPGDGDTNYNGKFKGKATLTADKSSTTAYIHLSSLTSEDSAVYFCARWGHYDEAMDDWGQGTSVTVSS VL: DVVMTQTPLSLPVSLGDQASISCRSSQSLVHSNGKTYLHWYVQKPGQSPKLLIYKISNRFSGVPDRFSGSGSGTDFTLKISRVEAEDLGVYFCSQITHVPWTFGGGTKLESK
2. TM-60: anti-TMEM106B monoclonal antibody; VH SEQ ID NO: 413, VL SEQ ID NO: 502 (antibody, V domains shown, Variable Heavy Chain -- TM-48, TM-60; Variable Light Chain -- TM-60) VH: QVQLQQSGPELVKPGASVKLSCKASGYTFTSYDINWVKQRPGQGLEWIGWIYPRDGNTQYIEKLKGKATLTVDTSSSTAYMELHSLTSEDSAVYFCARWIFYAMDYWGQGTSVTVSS VL: DVLMTQTPLSLPVSLGDQASISCRSSQSIVHGNGNTYLEWYLQKPGQSPKLLIYKVSNRFSGVPDRFSGSGSGTDFTLKISRVEAEDLGVYYCFQGSHLPYTFGGGTKLEIK
3. TM-63: anti-TMEM106B monoclonal antibody; VH SEQ ID NO: 469, VL SEQ ID NO: 505 (antibody, V domains shown, Variable Heavy Chain -- TM-63; Variable Light Chain -- TM-63) VH: QVQLQQPGAELVKFGASVKLSCKASGYTFTSFWMHWVKQRPGQGLEWIGNIDPSDSETHYSQKFKDKATLTVDRSSNTAYIQLSSLTSEDSAVYYCARSSNWDNFDYWGQGTTVTVSS VL: DIVMTQASPSVSVTPGESVSISCRSSQSLLHVNGNTYLYWFLQRPGRSPRLLIYRMSNLASGVPDRFSGSGSGTAFTLRISRVEAEDVGVYYCMQHLQYPFSFGSGTKLEMK
4. TM-80: anti-TMEM106B monoclonal antibody; VH SEQ ID NO: 485, VL SEQ ID NO: 520 (antibody, V domains shown, Variable Heavy Chain -- TM-80; Variable Light Chain -- TM-80) VH: QVQLQQPGAELVKPGASVKLSCKASGYTFTTFWMHWVKQRPGQGLEWIGNIDPSDSETHYNQEFKDKATLTVDRSSNTAYMQLSSLTSEDSAVYYCARSSNWDNFDYWGQGTAVTVSS VL: DIVMTQAAPSVPVTPGESVSISCRSSQSLLHVNGHTYLYWFLQRPGQSPQLLIYRMSNLASGVPDRFSGSGSGTVFTLRISRVETEDVGIYYCMQHLQYPFTFGSGTKLEIK

[2, 2, 4, 4]

Report Binding Community/Bin for each item below.
1. TM-72: anti-TMEM106B monoclonal antibody; VH SEQ ID NO: 477, VL SEQ ID NO: 512 (antibody, V domains shown, Variable Heavy Chain -- TM-72; Variable Light Chain -- TM-71, TM-72) VH: QVQLQQPGAELVKPGTSVKLSCKASGSTFTNYWMHWVMQRPGQGLEWIGNIDPSDSDTHYNQKFKDRAKLTVDKSSSTAYMQLSGLTSEDSAVYYCARSRGGYYDYGEAMDYWGQGTSVTVSS VL: DIVMTQAAPSVPVTPGESVSISCRSSKSLLHTNGNTYLFWFIQRPGQSPHLLIYRKSNLASGVPDRFSGSGSGTAFTLRISRVEAEDVGVYYCMQHLEYPFTFGSGTKLEIK
2. TM-26: anti-TMEM106B monoclonal antibody; CDR-H1-3 SEQ ID NO: 2, 56, 99; CDR-L1-3 SEQ ID NO: 139, 176, 203 (antibody, V domains shown) VH: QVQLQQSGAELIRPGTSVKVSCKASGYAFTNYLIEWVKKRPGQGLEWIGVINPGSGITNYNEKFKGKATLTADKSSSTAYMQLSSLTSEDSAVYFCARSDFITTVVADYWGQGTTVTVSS VL: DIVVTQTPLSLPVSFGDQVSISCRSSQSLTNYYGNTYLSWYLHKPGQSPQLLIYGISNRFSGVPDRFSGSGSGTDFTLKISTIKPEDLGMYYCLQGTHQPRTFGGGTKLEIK

4
1
